# ASSAY OVERVIEW: qHTS assay for identifying genotoxic compounds that show differential cytotoxicity against isogenic chicken DT40 cell lines with known DNA damage response pathways - Rev3 mutant cell line (AID 743014); note: nearly all actives have a fitted effect of over 55% in size
# PROTOCOL CONDITIONS: chicken DT40 Rev3-/- viability, CellTiter-Glo, 40 h; series mostly up to 68.4 µM
# Description: National Center for Advancing Translational Sciences [NCATS] NIH Chemical Genomics Center [NCGC] U.S. Environmental Protection Agency [EPA] National Institutes of Environmental Health Sciences [NIEHS] National Toxicology Program [NTP] U.S. Food and Drug Administration [FDA] DNA repair pathways play a critical role in cellular homeostasis by repairing DNA damage induced by endogenous processes and xenobiotics. […]
Records with an inconclusive call do not appear. Activity calls are given as the source filed them. Calls come from the whole dose curve; as a rule, active = well fitted cell-killing curve with a large enough effect in the repeat runs; inconclusive = weak or mixed curves, or effect the other way; inactive = no such curve, though single readings can be large or run the other way.
I would appreciate it if you answered using one of these outcomes: active, inactive

Look over these answered cases.
1) Nc1ccc(N)c2c1C(=O)c1ccccc1C2=O | active
2) CCCCC(CC)COC(=O)COc1ccc(Cl)cc1Cl (stereo unspecified) | inactive
3) CCn1cc(C(=O)O)c(=O)c2cnc(N3CCNCC3)nc21 | inactive
4) CCO[Si](CCCCl)(OCC)OCC | inactive
5) CCCCO | inactive
6) CN(Cc1ccc(C(C)(C)C)cc1)Cc1cccc2ccccc12 | inactive

Query: Status in this test for CCCCNc1ccc(C(=O)OCCOCCOCCOCCOCCOCCOCCOCCOCCOC)cc1 ?
Response: inactive

* * *

# TEST SYSTEM: Cytochrome P450 1A2 (Homo sapiens) (UniProt P05177)
# Sequence (P05177 whole entry, looked up): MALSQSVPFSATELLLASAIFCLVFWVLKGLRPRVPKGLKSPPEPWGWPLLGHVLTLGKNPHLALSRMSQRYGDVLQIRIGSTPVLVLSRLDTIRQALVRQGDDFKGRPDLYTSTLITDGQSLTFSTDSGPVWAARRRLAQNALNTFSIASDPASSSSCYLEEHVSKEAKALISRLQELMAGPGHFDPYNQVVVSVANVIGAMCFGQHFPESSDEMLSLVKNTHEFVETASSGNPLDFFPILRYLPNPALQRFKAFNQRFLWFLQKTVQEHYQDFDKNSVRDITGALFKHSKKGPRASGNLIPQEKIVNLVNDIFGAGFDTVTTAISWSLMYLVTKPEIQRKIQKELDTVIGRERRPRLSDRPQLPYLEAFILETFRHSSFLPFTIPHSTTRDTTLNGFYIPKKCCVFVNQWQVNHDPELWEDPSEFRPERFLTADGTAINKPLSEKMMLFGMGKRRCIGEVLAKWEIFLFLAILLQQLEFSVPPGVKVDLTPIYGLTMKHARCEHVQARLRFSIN
# ASSAY OVERVIEW: Cytochrome P450 Family 1 Subfamily A Member 2 (CYP1A2) small molecule antagonists: luciferase reporter qHTS assay (AID 1671199); note: nearly all actives have a fitted effect of over 50% in size
# PROTOCOL CONDITIONS: P450-Glo CYP1A2 enzyme, luciferin luminescence, 1 h; series mostly up to 53 µM
Results filed as inconclusive are left out. Active and inactive are the calls of the source. The call rests on the fitted dose curve; in most records, active means well fitted inhibition curve with a large enough effect in the repeat runs; inconclusive means weak or mixed curves; inactive means no such curve, though single readings can be large or run the other way.
Hi! Could you answer with just one of these? active, inactive

For orientation, consider the following solved cases.
1) Nc1ccc(S(=O)(=O)Nc2ccccc2)cc1 | inactive
2) CCCCC/C=C\C/C=C\CCCCCCCC(=O)NC(C)c1ccccc1 (stereo not given) | inactive
3) CN1CCC(=C2c3ccccc3Sc3ccccc32)CC1 | inactive
4) CCCCCCCCCCCCCCCCOS(=O)(=O)O | inactive
5) C1CCCNCCC1 | inactive

Then this compound:
Query: Hi, sorry to bother you, what did the test record for O=C1CCC(=O)O1 ?
Response: inactive

* * *

# ASSAY OVERVIEW: qHTS assay for identifying genotoxic compounds that show differential cytotoxicity against isogenic chicken DT40 cell lines with known DNA damage response pathways - wild type cell line (AID 743012); note: nearly all actives have a fitted effect of over 60% in size
# PROTOCOL CONDITIONS: DT40 wild type chicken cells viability, CellTiter-Glo, 40 h; series mostly up to 68.4 µM
# Source text: U.S. Tox21 Program National Center for Advancing Translational Sciences [NCATS] NIH Chemical Genomics Center [NCGC] U.S. Environmental Protection Agency [EPA] National Institutes of Environmental Health Sciences [NIEHS] National Toxicology Program [NTP] U.S. Food and Drug Administration [FDA] Tox21 Assay Overview: DNA repair pathways play a critical role in cellular homeostasis by repairing DNA damage induced by endogenous processes and xenobiotics. […]
Inconclusive results are not listed. The source made the active and inactive calls. The call rests on the fitted dose curve; in most records, active means well fitted cell-killing curve with a large enough effect in the repeat runs; inconclusive means weak or mixed curves, or effect the other way; inactive means no such curve, though single readings can be large or run the other way.
Pick from active, inactive when you respond.

1. CCCCCCCCCCCCCCOS(=O)(=O)O | inactive
2. O=P(O)(OCc1ccccc1)OCc1ccccc1 | inactive
3. CCN(CC)CCOC(=O)C(c1ccccc1)C1CCCCC1 (stereo not drawn) | active

Query: Answer briefly: the call reported for CCCCCCCCO[C@@H]1O[C@H](CO)[C@@H](O)[C@H](O)[C@H]1O in this assay.
Response: inactive

Query: Which outcome was entered for the compound Cc1cccc(C)c1OCC(=O)N[C@@H](Cc1ccccc1)[C@@H](O)C[C@H](Cc1ccccc1)NC(=O)[C@H](C(C)C)N1CCCNC1=O in this test?
Response: active

Query: Status in this test for Nc1cccc(S(=O)(=O)c2cccc(N)c2)c1 ?
Response: active

Query: # lookup: test call for O=C1c2ccccc2S(=O)(=O)N1CCCCN1CCN(c2ncccn2)CC1
Response: inactive

Query: Hi, sorry to bother you, what did the test record for CC(=O)NO ?
Response: inactive
